Reference source: paper PMC6566410

# System: SW-620
# assay-remarks: NCI one-dose SRB assay
# Type: cell-based
# condition-details: Homo sapiens, SW-620 (Colon Cancer), 1.00E-5 Molar, read-out: Growth Percent
# Method: First, all diamide-based benzenesulfonamides herein reported 5a–h were screened for their antitumor activity at one dose (10^−5 M) assay against a panel of sixty cancer cell lines through the National Cancer Institute (NCI) Developmental Therapeutic Program (www.dtp.nci.nih.gov), according to US-NCI protocol. The cell growth and cell viability were evaluated using the sulforhodamine B (SRB) colorimetric assay. […]
property: activity at 10 µM (%)
Please state the figure in %; there is no need to write the unit.

Sample answers from the record:
structure-smiles: Cc1ccc(C=C(NC(=O)c2ccccc2)C(=O)Nc2ccc(S(N)(=O)=O)cc2)cc1
measurement-unit: %
observed-value: 113

structure-smiles: NS(=O)(=O)c1ccc(NC(=O)C(=Cc2ccc(Br)cc2)NC(=O)c2ccccc2)cc1
measurement-unit: %
observed-value: 104

structure-smiles: COc1ccc(C=C(NC(=O)c2ccccc2)C(=O)Nc2ccc(S(N)(=O)=O)cc2)cc1
measurement-unit: %
observed-value: 101

structure-smiles: Cc1ccc(C=C(NC(=O)c2ccccc2)C(=O)Nc2ccc(S(N)(=O)=O)cc2)o1
measurement-unit: %
observed-value: 106

structure-smiles: NS(=O)(=O)c1ccc(NC(=O)C(=Cc2ccc(Cl)cc2)NC(=O)c2ccccc2)cc1
measurement-unit: %
observed-value: 100

structure-smiles: NS(=O)(=O)c1ccc(NC(=O)C(=Cc2ccc(Cl)cc2Cl)NC(=O)c2ccccc2)cc1
measurement-unit: %
observed-value: 104

**Q:** Requested field: activity at 10 µM. Item: COc1ccc(C=C(NC(=O)c2ccccc2)C(=O)Nc2ccc(S(N)(=O)=O)cc2)cc1OC
**A:** 102

**Q:** Requested field: activity at 10 µM. Item: COc1ccc(C=C(NC(=O)c2ccccc2)C(=O)Nc2ccc(S(N)(=O)=O)cc2)c(OC)c1
**A:** 107
